Parameter: kon. Scope: all listed entries.
biological target: T1, human IGF2^1-67 (mature insulin-like growth factor 2) (human, UniProt P01344 25-91, biotinylated (site not stated) where immobilised on the chip (Tables 1-4)); experiment: SPR kinetic, biotin-IGF2 on chip, pH 7.4
T1 construct: mature; also called mature IGF2; biotinylated IGF2
T1 sequence (P01344 25-91): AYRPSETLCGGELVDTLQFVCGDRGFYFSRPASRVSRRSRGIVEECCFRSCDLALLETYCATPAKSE
Please reply with the bare figure in M⁻¹ s⁻¹ and do not write the unit itself.

Here are 3 binders together with their reported answers.
Request: Identify kon associated with the binder domain 11^AB3 Q1569R P1597H S1602H G1603K (receptor, See m5) MKSNEHDDCQVTNPSTGHLFDLSSLSGRAGFTAAYSKSGVVYMSICGENENCPPGVGACFGRTRISVGKANKRLRYVDQVLQLVYKDGSHCPSKHKLSYKSVISFVCRPEAGPTNRPMLISLDKQTCTLFFSWHTPLACEQATECSV
Response: 1.75e+07

Request: Identify kon associated with the binder domain 11^AB3 Q1569R P1597K (receptor, See m5) MKSNEHDDCQVTNPSTGHLFDLSSLSGRAGFTAAYSKSGVVYMSICGENENCPPGVGACFGRTRISVGKANKRLRYVDQVLQLVYKDGSKCPSKSGLSYKSVISFVCRPEAGPTNRPMLISLDKQTCTLFFSWHTPLACEQATECSV
Response: 2e+07

Request: Identify kon associated with the binder domain 11^AB5 Q1569R P1597H G1603K (receptor, See m5) MKSNEHDDCQVTNPSTGHLFDLSSLSGRAGFTAAYAKGWGVYMSICGENENCPPGVGACFGRTRISVGKANKRLRYVDQVLQLVYKDGSHCPSKSKLSYKSVISFVCRPEAGPTNRPMLISLDKQTCTLFFSWHTPLACEQATECSV
Response: 6.67e+06

# next binder below
Request: Identify kon associated with the binder domain 11^AB5 Q1569R P1597H S1602H (receptor, See m5) MKSNEHDDCQVTNPSTGHLFDLSSLSGRAGFTAAYAKGWGVYMSICGENENCPPGVGACFGRTRISVGKANKRLRYVDQVLQLVYKDGSHCPSKHGLSYKSVISFVCRPEAGPTNRPMLISLDKQTCTLFFSWHTPLACEQATECSV
Response: 5.9e+06
